Values were extracted from patent US20250360220A1.

Consider the following substances and their measured % amp change readings.
target: K18 Tau (Homo sapiens, UniProt P10636); construct: K18 Tau was first expressed, collected, and purified; His tag (cleaved yes); made in house; assay: Tau Kinetics Thioflavin T plate reader assay; format: biochemical; settings: 10 μM PLP/Pep; change in amplitude relative to control Tau
Sequence (P10636 561-685 limits assumed): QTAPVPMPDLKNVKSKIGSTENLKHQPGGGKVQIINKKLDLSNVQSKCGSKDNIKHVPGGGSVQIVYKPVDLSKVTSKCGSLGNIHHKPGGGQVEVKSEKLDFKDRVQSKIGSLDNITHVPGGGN

[
  {
    "Substance": "DRVQIVYKRR [P7]",
    "% amp change": "4%"
  },
  {
    "Substance": "VQPINK [P12]",
    "% amp change": "15%"
  },
  {
    "Substance": "TP12: PLP generated from peptide monomers characterized by SEQ ID: 10 (VQPINK)",
    "% amp change": "−91%"
  },
  {
    "Substance": "VQIINKRR [P4]",
    "% amp change": "6%"
  }
]
